- Tested on: MucilAir™-HF tissues
- measurement_notes: Mucin-5AC (Muc5AC) immunohistochemistry, goblet cells, MucilAir-HF model
- Format: cell-based, human
- condition_context: 30 min/day exposure, day 12, Low concentration (first of the tested concentrations), average ± standard deviation
Where a name gives a salt, the structure may show the parent alone.
measurement_name: % of Muc5AC area (%)
Just the number in %, nothing appended.

Some compounds with recorded % of Muc5AC area:
{"compound": "O=C(O)c1ccc(/C=C2\\SC(=S)N(c3cccc(C(F)(F)F)c3)C2=O)cc1", "% of Muc5AC area [%]": 7.15}
{"compound": "C[S+]([O-])CCCCN=C=S (stereo not shown)", "% of Muc5AC area [%]": 3.74}
{"compound": "C=CC=O", "% of Muc5AC area [%]": 3.66}

Find the recorded % of Muc5AC area belonging to `Cc1cc(O)ccc1Cl` and report it.
14.47

Try this compound next: `CN1CCC[C@H]1c1cccnc1`
0.89

Try this compound next: `O=c1ccc2ccccc2o1`
5.09

Try this compound next: CC(C)NCC(O)c1ccc(O)c(O)c1 (stereo not shown) [Isoproterenol, Isoproterenol hydrochloride]
8.78

----------
- System: MucilAir™-HF tissues
- measurement_notes: Mucin-5AC (Muc5AC) immunohistochemistry, goblet cells, MucilAir-HF model
- Assay type: cell-based, human
- condition_context: 30 min/day exposure, day 12, Medium concentration (second of the tested concentrations), average ± standard deviation
Where a name gives a salt, the structure may show the parent alone.
measurement_name: % of Muc5AC area (%)
Just the number in %, nothing appended.

{"compound": "C[S+]([O-])CCCCN=C=S (stereo not shown)", "target_or_system": "MucilAir™-HF tissues", "scale_unit": "%", "experimental_result": 9.38}
{"compound": "C=CC=O", "target_or_system": "MucilAir™-HF tissues", "scale_unit": "%", "experimental_result": 7.40}
{"compound": "Cc1cc(O)ccc1Cl", "target_or_system": "MucilAir™-HF tissues", "scale_unit": "%", "experimental_result": 8.85}
{"compound": "CN1CCC[C@H]1c1cccnc1", "target_or_system": "MucilAir™-HF tissues", "scale_unit": "%", "experimental_result": 3.91}
{"compound": "CC(C)NCC(O)c1ccc(O)c(O)c1 (stereo not shown) [Isoproterenol, Isoproterenol hydrochloride]", "target_or_system": "MucilAir™-HF tissues", "scale_unit": "%", "experimental_result": 15.53}

Find the recorded % of Muc5AC area belonging to `O=C(O)c1ccc(/C=C2\SC(=S)N(c3cccc(C(F)(F)F)c3)C2=O)cc1` and report it.
11.01

Try this compound next: `O=c1ccc2ccccc2o1`
6.83
